system: cloned human or rodent CNS receptors, channels, and transporters (PDSP panel); experiment: PDSP GPCR panel primary binding assays at 10 μM; details: BZP Rat Brain Site; primary assay, replicate 1
MEASURED PARAMETER: Inhibition 1 (%)
Lab book: enter the figure in %, no units written.

>  <MOLECULE>
CC(=O)N1CCC(NC(=O)NC23CC4CC(CC(C4)C2)C3)CC1 [UNC10302683A, AR9281]

>  <TARGET OR TEST SYSTEM>
cloned human or rodent CNS receptors, channels, and transporters (PDSP panel)

>  <UNITS LABEL>
%

>  <Inhibition 1>
-9.6

$$$$
>  <MOLECULE>
CNc1nc(C)nc(N[C@H]2CCC[C@@H](C(=O)NCc3ccc(C#N)cc3C(F)(F)F)C2)n1 [UNC10302679A, GSK2256294A]

>  <TARGET OR TEST SYSTEM>
cloned human or rodent CNS receptors, channels, and transporters (PDSP panel)

>  <UNITS LABEL>
%

>  <Inhibition 1>
13.82

$$$$
>  <MOLECULE>
O=C(NC1CC1)C(=O)C(Cc1ccccc1)NC(=O)[C@H]1CCC(=O)N1Cc1ccccc1 (stereo partly shown) [UNC10302676A, ABT-957 (Alicapistat)]

>  <TARGET OR TEST SYSTEM>
cloned human or rodent CNS receptors, channels, and transporters (PDSP panel)

>  <UNITS LABEL>
%

>  <Inhibition 1>
19.6

$$$$

The record that follows has no Inhibition 1 shown yet.
Given the molecule CCC(=O)N1CCC(NC(=O)Nc2ccc(OC(F)(F)F)cc2)CC1 [UNC10302681A, TPPU] , what is its reported Inhibition 1?
23.2

====

Below: a set of entries, each annotated with reported Inhibition 3.
target: cloned human or rodent CNS receptors, channels, and transporters (PDSP panel) (Homo sapiens, UniProt P11229); construct: expressed in transfected cells; test: PDSP GPCR panel primary binding assays at 10 μM; conditions: M1; primary assay, replicate 3
Sequence (P11229 whole entry): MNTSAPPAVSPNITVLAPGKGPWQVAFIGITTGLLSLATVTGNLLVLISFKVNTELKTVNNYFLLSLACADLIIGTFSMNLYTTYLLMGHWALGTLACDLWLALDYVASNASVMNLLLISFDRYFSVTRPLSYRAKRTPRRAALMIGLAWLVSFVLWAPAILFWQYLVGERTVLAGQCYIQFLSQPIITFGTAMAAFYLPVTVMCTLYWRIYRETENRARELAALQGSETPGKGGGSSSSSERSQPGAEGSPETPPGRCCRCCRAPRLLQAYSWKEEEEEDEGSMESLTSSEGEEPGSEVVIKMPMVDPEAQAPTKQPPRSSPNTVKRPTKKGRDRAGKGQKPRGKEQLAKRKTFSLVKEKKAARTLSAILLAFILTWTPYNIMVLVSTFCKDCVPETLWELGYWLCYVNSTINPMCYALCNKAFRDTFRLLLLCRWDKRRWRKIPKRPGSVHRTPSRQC
Lab book: enter the figure in %, no units written.

See these solved cases before continuing.
>  <COMPOUND>
O=C(NC1CC1)C(=O)C(Cc1ccccc1)NC(=O)[C@H]1CCC(=O)N1Cc1ccccc1 (some centres unmarked) [UNC10302676A, ABT-957 (Alicapistat)]

>  <UNITS LABEL>
%

>  <ASSAY VALUE>
-17.78

$$$$
>  <COMPOUND>
CC(=O)N1CCC(NC(=O)NC23CC4CC(CC(C4)C2)C3)CC1 [UNC10302683A, AR9281]

>  <UNITS LABEL>
%

>  <ASSAY VALUE>
-4.8

$$$$
>  <COMPOUND>
O=c1oc2ccccc2cc1-c1cn2cc(Cc3ccc(F)cc3)sc2n1 [UNC10302680A, iMDK]

>  <UNITS LABEL>
%

>  <ASSAY VALUE>
0.66

$$$$
>  <COMPOUND>
CCC(=O)N1CCC(NC(=O)Nc2ccc(OC(F)(F)F)cc2)CC1 [UNC10302681A, TPPU]

>  <UNITS LABEL>
%

>  <ASSAY VALUE>
-3.29

$$$$

The record that follows has no Inhibition 3 shown yet.
Given the compound CNc1nc(C)nc(N[C@H]2CCC[C@@H](C(=O)NCc3ccc(C#N)cc3C(F)(F)F)C2)n1 [UNC10302679A, GSK2256294A] , what is its reported Inhibition 3?
-11.01

====

target: cloned human or rodent CNS receptors, channels, and transporters (PDSP panel) (Homo sapiens); construct: expressed in transfected cells; assay: PDSP GPCR panel primary binding assays at 10 μM; details: Receptor 5-HT2A; primary assay, 10 μM; mean of Inhibition 1-4
MEASURED PARAMETER: Mean % (%)
Lab book: enter the figure in %, no units written.

See these solved cases before continuing.
>  <MOLECULE>
c1cn2cc(-c3ccc4cn[nH]c4c3)nc(Nc3ccc(N4CCOCC4)cc3)c2n1 [UNC10302678A, Entospletinib (GS-9973)]

>  <ASSAY VALUE>
-11.45

$$$$
>  <MOLECULE>
O=c1oc2ccccc2cc1-c1cn2cc(Cc3ccc(F)cc3)sc2n1 [UNC10302680A, iMDK]

>  <ASSAY VALUE>
0.43

$$$$
>  <MOLECULE>
Cl.NC(=O)c1cnc(N[C@@H]2CCCC[C@@H]2N)nc1Nc1cccc(-n2nccn2)c1 [UNC10302682A, P505-15 (PRT06207 HCl)]

>  <ASSAY VALUE>
6.43

$$$$

The record that follows has no Mean % shown yet.
Given the molecule CCCCNc1ncc2c(-c3ccc(CN4CCN(C)CC4)cc3)cn([C@H]3CC[C@H](O)CC3)c2n1 [UNC2025C, UNC2025] , what is its reported Mean %?
86.29

====

target: cloned human or rodent CNS receptors, channels, and transporters (PDSP panel) (Homo sapiens, UniProt P28566); construct: expressed in transfected cells; test: PDSP GPCR panel primary binding assays at 10 μM; conditions: 5-HT1E; primary assay, replicate 3
Sequence (P28566 whole entry): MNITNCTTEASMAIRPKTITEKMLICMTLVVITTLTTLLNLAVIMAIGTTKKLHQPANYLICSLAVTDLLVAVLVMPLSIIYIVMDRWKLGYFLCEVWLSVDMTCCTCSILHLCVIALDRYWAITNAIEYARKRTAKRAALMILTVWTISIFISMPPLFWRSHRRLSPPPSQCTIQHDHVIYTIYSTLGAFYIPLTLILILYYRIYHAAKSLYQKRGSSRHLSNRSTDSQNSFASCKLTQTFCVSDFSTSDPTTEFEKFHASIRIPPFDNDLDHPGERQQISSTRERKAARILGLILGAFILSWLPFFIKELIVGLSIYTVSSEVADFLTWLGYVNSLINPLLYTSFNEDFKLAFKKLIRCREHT
MEASURED PARAMETER: Inhibition 3 (%)
Lab book: enter the figure in %, no units written.

>  <MOLECULE>
CC(=O)N1CCC(NC(=O)NC23CC4CC(CC(C4)C2)C3)CC1 [UNC10302683A, AR9281]

>  <ASSAY VALUE>
-6.96

$$$$
>  <MOLECULE>
CNc1nc(C)nc(N[C@H]2CCC[C@@H](C(=O)NCc3ccc(C#N)cc3C(F)(F)F)C2)n1 [UNC10302679A, GSK2256294A]

>  <ASSAY VALUE>
8.79

$$$$
>  <MOLECULE>
O=C(NC1CC1)C(=O)C(Cc1ccccc1)NC(=O)[C@H]1CCC(=O)N1Cc1ccccc1 (stereo partly shown) [UNC10302676A, ABT-957 (Alicapistat)]

>  <ASSAY VALUE>
-9.69

$$$$

The record that follows has no Inhibition 3 shown yet.
Given the molecule CCC(=O)N1CCC(NC(=O)Nc2ccc(OC(F)(F)F)cc2)CC1 [UNC10302681A, TPPU] , what is its reported Inhibition 3?
-9.09

====

molecular target: cloned human or rodent CNS receptors, channels, and transporters (PDSP panel) (Homo sapiens); construct: expressed in transfected cells; test: PDSP GPCR panel primary binding assays at 10 μM; settings: Receptor 5-HT1E; primary assay, 10 μM
MEASURED PARAMETER: Inhibition 4 (%)
Lab book: enter the figure in %, no units written.

>  <MOLECULE>
c1cn2cc(-c3ccc4cn[nH]c4c3)nc(Nc3ccc(N4CCOCC4)cc3)c2n1 [UNC10302678A, Entospletinib (GS-9973)]

>  <UNITS LABEL>
%

>  <ASSAY VALUE>
-0.46

$$$$
>  <MOLECULE>
CCCCNc1ncc2c(-c3ccc(CN4CCN(C)CC4)cc3)cn([C@H]3CC[C@H](O)CC3)c2n1 [UNC2025C, UNC2025]

>  <UNITS LABEL>
%

>  <ASSAY VALUE>
-9.18

$$$$
>  <MOLECULE>
Cl.NC(=O)c1cnc(N[C@@H]2CCCC[C@@H]2N)nc1Nc1cccc(-n2nccn2)c1 [UNC10302682A, P505-15 (PRT06207 HCl)]

>  <UNITS LABEL>
%

>  <ASSAY VALUE>
-50.26

$$$$

Given the molecule O=c1oc2ccccc2cc1-c1cn2cc(Cc3ccc(F)cc3)sc2n1 [UNC10302680A, iMDK] , what is its reported Inhibition 4?
-17.01

====

Below: a set of entries, each annotated with reported Inhibition 4.
tested on: cloned human or rodent CNS receptors, channels, and transporters (PDSP panel); assay: PDSP GPCR panel primary binding assays at 10 μM; conditions: Receptor DOR; primary assay, 10 μM
Lab book: enter the figure in %, no units written.

>  <COMPOUND>
CCCCNc1ncc2c(-c3ccc(CN4CCN(C)CC4)cc3)cn([C@H]3CC[C@H](O)CC3)c2n1 [UNC2025C, UNC2025]

>  <TARGET OR TEST SYSTEM>
cloned human or rodent CNS receptors, channels, and transporters (PDSP panel)

>  <MEASURED PARAMETER>
Inhibition 4

>  <UNITS LABEL>
%

>  <ASSAY VALUE>
1.65

$$$$
>  <COMPOUND>
Cl.NC(=O)c1cnc(N[C@@H]2CCCC[C@@H]2N)nc1Nc1cccc(-n2nccn2)c1 [UNC10302682A, P505-15 (PRT06207 HCl)]

>  <TARGET OR TEST SYSTEM>
cloned human or rodent CNS receptors, channels, and transporters (PDSP panel)

>  <MEASURED PARAMETER>
Inhibition 4

>  <UNITS LABEL>
%

>  <ASSAY VALUE>
6.53

$$$$
>  <COMPOUND>
O=c1oc2ccccc2cc1-c1cn2cc(Cc3ccc(F)cc3)sc2n1 [UNC10302680A, iMDK]

>  <TARGET OR TEST SYSTEM>
cloned human or rodent CNS receptors, channels, and transporters (PDSP panel)

>  <MEASURED PARAMETER>
Inhibition 4

>  <UNITS LABEL>
%

>  <ASSAY VALUE>
-8.29

$$$$

Given the compound c1cn2cc(-c3ccc4cn[nH]c4c3)nc(Nc3ccc(N4CCOCC4)cc3)c2n1 [UNC10302678A, Entospletinib (GS-9973)] , what is its reported Inhibition 4?
-11.54

Source of measurements: paper PMC9005681
